test system: ACHN renal; assay: NCI tumour cell line growth inhibition, 48 h
In this section we review reported TGI values for a set of molecules.
Your answer is read as µM, so omit the unit and give the number.

Query: Give the reported TGI for this molecule. COc1ccc(C2NCCc3c2[nH]c2ccccc32)cc1CN1CCN(c2ccc(F)cc2)CC1 (stereo unspecified)
Reply: 3.69

Query: Report TGI, nothing else, for this molecule: COC(=O)C1OC(O[C@H]2CC[C@]3(C)[C@H]4CC=C5[C@@H]6CC(C)(C)CC[C@]6(C(=O)OC)[C@H](O)C[C@@]5(C)[C@]4(C)CC[C@H]3C2(C)C)C(O)C(O)C1O (stereo partly specified)
Reply: 23.8

Query: Give TGI for CCOC(=O)/C=C1\SC(=Nc2ccc(C#N)cc2)N(CCN2C(=O)/C(=C/C(=O)OCC)SC2=Nc2ccc(C#N)cc2)C1=O
Reply: 17.9

Query: Fill in TGI for record COc1ccc(/C(Cl)=C(\C=O)c2ccc(F)cc2)cc1
Reply: 35.6

Query: Fill in reported TGI for this entry: c1ccc2nc3[nH]c4ccccc4c3cc2c1
Reply: 12.2

---
Query: For the molecule COc1ccc2nc(NCCCNCCO)c3sc4ccc(F)cc4c(=O)c3c2c1 , report TGI.
Reply: 2.99

Query: State its TGI for this molecule: COc1cc2c3c(n(CCCN)c(=O)c2cc1OC)-c1ccc(F)cc1C3=O
Reply: 6.14

Query: For the molecule C=C1C(=O)O[C@H]2[C@H]1CC/C(COC(=O)C(=O)c1c[nH]c3ccc(OC)cc13)=C\CC[C@@]1(C)O[C@@H]21 , give its reported TGI.
Reply: 9.2

###

test system: UACC-257 melanoma; test: NCI tumour cell line growth inhibition, 48 h
quantity: TGI

Reference set, count: 8
Query: Given NC(=O)c1n[nH]n(-c2ccccc2)c1=O , respond with its TGI.
Reply: > 100 µM

Query: # return recorded TGI for entry COc1cc2c3c(n(CCCN)c(=O)c2cc1OC)-c1ccc(F)cc1C3=O
Reply: 31 µM

Query: Specify TGI for COc1ccc(C(=O)N2CCN(c3ccc4c(c3)OCC(=O)N4)CC2)cc1 and stop.
Reply: > 100 µM

Query: Return TGI (reported value) for this molecule: Clc1ccc(OCc2nnc3sc(-c4ccc(-c5ccc(Cl)cc5Cl)o4)nn23)c(Cl)c1
Reply: 38.2 µM

Query: Please look at this molecule and report its TGI: O=C1/C(=C/c2ccccc2)SC(=Nc2ccccc2)N1Nc1ccccc1
Reply: > 100 µM

Query: Read the entry Cn1cc2c(n1)c(N/N=C/c1ccccc1)nn1nnnc21 and write its reported TGI.
Reply: > 100 µM

Query: Read off the recorded TGI for O=C(O)CCC1COc2ccccc2O1 (stereo unspecified)
Reply: > 10 µM

Query: Identify the reported TGI for the following entry. Cc1cc(=O)oc2cc(OC(=O)Nc3ccc(Cl)c(Cl)c3)ccc12
Reply: 84.2 µM

More entries:
Query: For Oc1cc(Cl)cc2cc(Br)cnc12 , write its TGI.
Reply: > 23.9 µM

Query: Return reported TGI. Input molecule: Cc1cc(S(=O)(=O)Nc2nc3ccsc3c(=O)n2Cc2ccco2)c(S)cc1Cl
Reply: > 100 µM

###

test system: OVCAR-3 ovarian; assay: NCI tumour cell line growth inhibition, 48 h
# GI50 per entry

Some entries whose results are on file:
Query: Return the recorded GI50 value; entry: O=c1cccc(C#Cc2ccccc2)o1
Reply: 2420 nM

Query: Please report the measured GI50 for O=C1/C(=C/c2ccccc2)SC(=Nc2ccccc2)N1Nc1ccccc1
Reply: 10200 nM

Continuing:
Query: Give the measured GI50 for COc1ccc(/C=C(/C(=O)N2CCCC2)c2cc(OC)c(OC)c(OC)c2)cc1N
Reply: 992 nM
